system: rat mGluR5 receptor (Rattus norvegicus)
Construct: expressed in transfected cells; host or cells: HEK-293
Sequence (P31424 21-1203): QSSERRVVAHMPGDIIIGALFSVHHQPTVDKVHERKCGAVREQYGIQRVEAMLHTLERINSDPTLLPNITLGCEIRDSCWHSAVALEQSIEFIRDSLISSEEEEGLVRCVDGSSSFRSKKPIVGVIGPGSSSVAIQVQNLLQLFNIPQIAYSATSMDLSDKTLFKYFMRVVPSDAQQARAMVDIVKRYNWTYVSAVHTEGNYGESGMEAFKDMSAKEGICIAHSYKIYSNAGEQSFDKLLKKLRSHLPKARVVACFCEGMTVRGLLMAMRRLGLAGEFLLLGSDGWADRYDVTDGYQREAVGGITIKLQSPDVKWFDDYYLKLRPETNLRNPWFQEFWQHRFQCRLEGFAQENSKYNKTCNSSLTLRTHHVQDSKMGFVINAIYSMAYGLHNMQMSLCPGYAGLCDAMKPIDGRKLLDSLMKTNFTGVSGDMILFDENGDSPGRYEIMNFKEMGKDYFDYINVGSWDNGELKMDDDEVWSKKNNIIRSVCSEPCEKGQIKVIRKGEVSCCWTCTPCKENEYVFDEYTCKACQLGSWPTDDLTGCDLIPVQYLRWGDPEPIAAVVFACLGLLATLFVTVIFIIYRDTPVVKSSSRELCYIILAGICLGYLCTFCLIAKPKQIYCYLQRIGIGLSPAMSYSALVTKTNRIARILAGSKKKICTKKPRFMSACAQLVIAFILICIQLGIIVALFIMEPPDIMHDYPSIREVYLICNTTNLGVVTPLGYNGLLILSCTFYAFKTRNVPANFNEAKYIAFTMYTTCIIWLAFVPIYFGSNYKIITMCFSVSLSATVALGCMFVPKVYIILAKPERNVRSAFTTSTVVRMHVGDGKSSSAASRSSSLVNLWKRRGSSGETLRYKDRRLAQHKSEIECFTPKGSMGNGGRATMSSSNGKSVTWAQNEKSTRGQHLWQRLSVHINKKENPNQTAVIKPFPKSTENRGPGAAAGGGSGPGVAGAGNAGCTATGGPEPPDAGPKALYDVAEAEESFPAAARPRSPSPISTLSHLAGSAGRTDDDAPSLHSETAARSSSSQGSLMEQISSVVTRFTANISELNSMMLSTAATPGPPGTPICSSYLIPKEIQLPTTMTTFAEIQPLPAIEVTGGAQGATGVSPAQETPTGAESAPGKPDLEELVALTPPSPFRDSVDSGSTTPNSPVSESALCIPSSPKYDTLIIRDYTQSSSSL
method-summary: [3H]-MPEP displacement binding assay, HEK-293 cell membranes expressing rat mGluR5
measurement-parameters: Biological Activity, Table 2A; read-out: Median Ki
Experimental: MGluR5 expressing HEK-293 cells were scraped off a plate, transferred to centrifuge tubes and washed twice by centrifugation (2000 rpm for 10 minutes, at 4° C.) in buffer (50 mM Tris pH 7.5). The resulting pellets were aliquoted and stored at minus 80° C. […] Non-specific binding was determined in the presence of 10 μM MPEP. […] Percent inhibition and Ki values were generated by GraphPad Prism and Excel Fit. IC50 values were calculated using GraphPad by fitting to a 1 or 2 site-binding model. […]
pKi: −log10 of the molar value.
// reported pKi for each item listed
test-readout: pKi

smiles-representation	assay-result
Cc1cccc(N2CCN(C(=O)c3cccc(C#Cc4ccccc4)c3)CC2)n1	5.47
O=C(c1cccc(C#Cc2ccccc2)c1)N1CCN(c2cccc(Cl)c2)CC1	5.56
O=C(c1cccc(C#Cc2ccccn2)c1)N1CCN(c2cnccn2)CC1	6.40
O=C(c1cccc(C#Cc2ccccn2)c1)N1CCN(c2ncc(O)cn2)CC1	5.84
N#Cc1cccnc1N1CCN(C(=O)c2cccc(C#Cc3ccccn3)c2)CC1	5.79
